System: Plasmodium berghei
Assay: Screen against P. berghei liver stage (PbLuc), transformed with Luciferase, at 10uM
Type: functional, HepG2
Details: tested at 10 uM
The whole screen tested about 69,000 compounds, of which about 8,600 (12%) showed an effect of 50% or more. This excerpt belongs to a sample that is enriched for strong results.
I'd be grateful if you could share measured INHIBITION for these entries.
Write the answer as a number in %, unit excluded.

Request: // lookup INHIBITION for `O=C(NC[C@H]1OC[C@@H](NCc2cccs2)[C@@H]1O)N1CCOCC1`
Result: -0.371

Request: // lookup INHIBITION for `COc1ccc(C(=O)N(C)Cc2ncc(C)c(OC)c2C)c(OC)c1`
Result: 1.11

Request: // lookup INHIBITION for `O=C(CSCCN1CCOCC1)N1CCCCCC1`
Result: 44.1

Request: // lookup INHIBITION for `O=C(Cc1ccccn1)N1C[C@H](OCc2cccnc2)[C@H]2COC[C@H]21`
Result: -31

Request: // lookup INHIBITION for `C[C@@H]1C(=O)NC[C@H]2CN(Cc3ccc4c(c3)OCO4)C[C@H]21`
Result: 30.9

Request: // lookup INHIBITION for `O=C(O)[C@@H]1CN(C(=O)CSCCN2CCCC2)C[C@H]1c1ccccc1`
Result: 39.3

Request: // lookup INHIBITION for `O=C(N1CCCCC1)N1CCN(c2ccc(Cl)nn2)C(=O)C1`
Result: 30

Request: // lookup INHIBITION for COc1ccc(F)c(CN2CCCC(O)(CNCc3ncc[nH]3)C2=O)c1 (configuration not stated)
Result: 33.2

Request: // lookup INHIBITION for COc1ncccc1C(=O)N1CCCC1c1nc(-c2ccccc2)no1 (configuration not stated)
Result: 64.9

Request: // lookup INHIBITION for `O=C(c1cc(F)ccc1F)C1CCN(C(=O)c2ccco2)CC1`
Result: -98.8

Request: // lookup INHIBITION for `Cc1ccc(CN[C@@H]2CO[C@H](CNS(=O)(=O)c3ccccc3)[C@H]2O)cc1`
Result: 27.5

Request: // lookup INHIBITION for O=C1CN(S(=O)(=O)c2ccc(F)cc2)CC(O)CN1CC1CC1 (configuration not stated)
Result: 4.07

Request: // lookup INHIBITION for CCN1CC2(CC1=O)CN(Cc1ccncc1)CCN(C(=O)C(C)C)C2 (configuration not stated)
Result: 38.5

Request: // lookup INHIBITION for O=C(c1n[nH]c2c1CCC2)N1CCCC1c1nc(-c2ccccc2)no1 (configuration not stated)
Result: -68.4

Request: // lookup INHIBITION for CS(=O)(=O)N1CCCC1Cn1cccn1 (configuration not stated)
Result: 20.8

Request: // lookup INHIBITION for CN1CCN(C(CNC(=O)c2ccc(Cl)cc2F)c2cccs2)CC1 (configuration not stated)
Result: 66.7

Request: // lookup INHIBITION for `CC1CCN(C(=O)CSCc2nc(C3CC3)no2)CC1`
Result: -42.2

Request: // lookup INHIBITION for CC(C(=O)Nc1ccnn1C(C)C)N1CCc2nn(C)c(=O)cc2C1 (configuration not stated)
Result: 1.98

Request: // lookup INHIBITION for `CC(C)Cc1cc(C(=O)O)nc2[nH]c(=O)[nH]c(=O)c12`
Result: 41.2

Request: // lookup INHIBITION for `NC(=O)c1cc2c(nc1CCOc1ccc(F)cc1)CCC2`
Result: 31.2

Request: // lookup INHIBITION for `Cc1c(C(=O)O)cnn1-c1ccc(-c2nc(C3CC3)no2)cn1`
Result: 34

Request: // lookup INHIBITION for `Cc1ccc(S(=O)(=O)NC[C@H]2OC[C@@H](NCc3cccs3)[C@@H]2O)cc1`
Result: 52.5

Request: // lookup INHIBITION for COc1cccc(CN2CCCCC2c2n[nH]cc2-c2cc(C)no2)c1 (configuration not stated)
Result: 25.8

Request: // lookup INHIBITION for `CC1CCN(C(=O)CSCCN2CCOCC2)CC1`
Result: 85.6

Request: // lookup INHIBITION for `O=C(CCn1c(C(F)(F)F)cc2cccnc21)N1CCC(O)CC1`
Result: 29.2

Request: // lookup INHIBITION for CCOc1ccc(Br)cc1C1CCCN1 (configuration not stated)
Result: 16.8

Request: // lookup INHIBITION for CC(=O)NCCCNC(=O)N(C)C(C)Cc1ccc(Cl)cc1 (configuration not stated)
Result: -6.99

Request: // lookup INHIBITION for CCCC(=O)N1CCC(c2cc[nH]n2)C1 (configuration not stated)
Result: 17.4

Request: // lookup INHIBITION for `Cn1c(=O)[nH]c(=O)n2c(CC(=O)Nc3ccc(Cl)c(Cl)c3)cnc12`
Result: 20.1

Request: // lookup INHIBITION for O=C(O)c1ccccc1-n1cc(CN2CCC(c3cc[nH]n3)C2)cn1 (configuration not stated)
Result: 22.17

Request: // lookup INHIBITION for CCC(C)NC(=O)c1ccc(NC(=O)CCc2ccncc2)c(C)c1 (configuration not stated)
Result: 39

Request: // lookup INHIBITION for `NC(=O)c1cc2c(nc1CCOCc1ccccc1)CCC2`
Result: 20.3

Request: // lookup INHIBITION for O=C(c1cnccn1)N1CCCC2(CCN(Cc3ccsc3)C2)C1 (configuration not stated)
Result: -15.2

Request: // lookup INHIBITION for `O=S(=O)(NC[C@H]1OC[C@@H](NCc2cccs2)[C@@H]1O)c1ccccc1`
Result: 51

Request: // lookup INHIBITION for `COc1cc(-c2n[nH]c(CO)n2)cc(OC)c1OC`
Result: 17.1

Request: // lookup INHIBITION for `COc1ccc(CCC(=O)Nc2ccncc2C)cc1`
Result: 12.8

Request: // lookup INHIBITION for `CC(C)(C)CN[C@@H]1CO[C@H](CNC(=O)c2cccs2)[C@H]1O`
Result: -7.29

Request: // lookup INHIBITION for CC(CNC(=O)c1cc(Cl)ccc1F)N1CCCC1 (configuration not stated)
Result: 33.8

Request: // lookup INHIBITION for CC(C)c1cc(C(=O)N2CCCC2c2nc(-c3ccccc3)no2)[nH]n1 (configuration not stated)
Result: 55.5

Request: // lookup INHIBITION for `Cn1nc(Br)c2c(NCCS(N)(=O)=O)ncnc21`
Result: 36.4

Request: // lookup INHIBITION for CC(CNC(=O)c1ccc(F)cc1I)N1CCCC1 (configuration not stated)
Result: 55.8

Request: // lookup INHIBITION for CC(CNC(=O)c1ccc(Cl)cc1I)N1CCCC1 (configuration not stated)
Result: 17.4

Request: // lookup INHIBITION for `O=C(NCC(=O)N1CCc2ccccc2C1)c1ccoc1`
Result: 26.3

Request: // lookup INHIBITION for `CN(C)CCCNC(=O)c1ccccc1NC(=O)c1cc(Cl)ccc1Cl`
Result: 27.6

Request: // lookup INHIBITION for COc1nc2c(cc1C(=O)N1CCCCC1c1ccccn1)CCC2 (configuration not stated)
Result: -34.4

Request: // lookup INHIBITION for Cc1cc(C(NC(=O)CNS(C)(=O)=O)C(C)C)c(C)s1 (configuration not stated)
Result: 22.3

Request: // lookup INHIBITION for `COc1cccc(OCCc2nc3c(cc2C(N)=O)CCC3)c1`
Result: 54.8

Where these numbers come from: ChEMBL document CHEMBL4513216
